- Test system: MV4-11 cells
- experiment notes: MV4-11 cell death / viability by FACS after PI staining
- Assay type: cell-based, human
- applied conditions: Homo sapiens; MV4-11 cells, 24 hr, 1% FCS RPMI medium; read-out: IC50 of apoptosis induction
- Method: FIG. 3A illustrates that MV-V4-11 cells are dependent on BCL-2 for their survival in vitro and can be induced to undergo apoptosis using ABT-199. […] Viability of cells was evaluated using FACS analysis following PI staining. […] FIG. 3D illustrates that transfection of MV4-11 cells with miR-15a or miR-16-1 induces cell death. […] 48 hr following transfection, viability of the cells was assessed by FACS following staining with PI. Level of miR-15a and miR-16-1-1 was measured by RT-PCR 24 hr post transfection. […]
result type: IC50 (nM)
Expressed in nM, but write only the number.

query: Consider the molecule shown here: `CC1(C)CCC(CN2CCN(c3ccc(C(=O)NS(=O)(=O)c4ccc(NCC5CCOCC5)c([N+](=O)[O-])c4)c(Oc4cnc5[nH]ccc5c4)c3)CC2)=C(c2ccc(Cl)cc2)C1` What is its recorded IC50?
result: 10
